- measured-target: T1, human SIRPβ1 extracellular domain + His-tag (NP_006056.2) (human, UniProt O00241 30-371)
- T1 construct: also called hSIRPβ1; HuSIRPβ1
- T1 sequence (O00241 other isoform, or with tags, fused parts or gaps): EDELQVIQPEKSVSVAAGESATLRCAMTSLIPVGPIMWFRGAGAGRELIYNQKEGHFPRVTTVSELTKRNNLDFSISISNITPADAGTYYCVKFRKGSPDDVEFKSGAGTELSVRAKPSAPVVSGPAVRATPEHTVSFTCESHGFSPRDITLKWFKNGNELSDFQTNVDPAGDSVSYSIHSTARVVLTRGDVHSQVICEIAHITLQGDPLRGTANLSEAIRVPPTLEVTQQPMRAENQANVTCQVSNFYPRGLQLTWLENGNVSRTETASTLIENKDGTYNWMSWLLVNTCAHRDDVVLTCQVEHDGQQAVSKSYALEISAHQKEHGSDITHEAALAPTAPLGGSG
- assay-protocol: SPR, Ab captured, ECD-His analyte
A collection of binders and their measured Kd
measure: Kd (nM)

INSERT INTO results (binder, quantitative_readout) VALUES
  ('Antibody A8 (antibody, human IgG1, kappa, L234A L235A, V domains shown) VH: EVQLVESGGGLVQPGGSLRLSCAASGFTLSSYDMHWVRQAPGKGLEWVSAIGTAGDTYYTGSVKGRFTISRENAKNSLYLQMNSLRAGDTAVYYCVRGGVWDDAFDIWGQGTMVTVSS VL: DIQMTQSPSSLSASVGDRVTITCRASQGINNYAAWFQQKPGKAPKSLIYTASSLHSGVPSKFSGSGSGTDFTLTISSLQPEDFATYYCQQYVSYPYTFGQGTKLEIKR', 69.6),
  ('Antibody A6 (antibody, human IgG1, kappa, L234A L235A, V domains shown) VH: EVQLVESGGGLVQPGGSLRLSCAASGFTLSSYDMHWVRQAPGKGLEWVSAIGTAGDTYYTGSVKGRFTISRENAKNSLYLQMNSLRAEDTAVYYCVRGGVWDDAFDIWGQGTMVTVSS VL: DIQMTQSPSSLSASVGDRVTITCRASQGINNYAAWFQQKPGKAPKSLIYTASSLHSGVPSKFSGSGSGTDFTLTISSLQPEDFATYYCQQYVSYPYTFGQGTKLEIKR', 65.1),
  ('Antibody A15 (antibody, human IgG1, kappa, L234A L235A, V domains shown) VH: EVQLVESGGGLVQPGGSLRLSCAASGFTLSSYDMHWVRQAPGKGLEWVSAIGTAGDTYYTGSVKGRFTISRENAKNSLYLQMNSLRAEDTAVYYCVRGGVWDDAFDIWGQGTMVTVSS VL: DIQMTQSPSSLSASVGDRVTITCRASQDINNYLAWFQQKPGKAPKSLIYTASSLHSGVPSKFSGSGSGTDFTLTISSLQPEDFATYYCQQYVSYPYTFGQGTKLEIKR', 58.8),
  ('Antibody A7 (antibody, human IgG1, kappa, L234A L235A, V domains shown) VH: EVQLVESGGGLVQPGGSLRLSCAASGFTLSSYDMHWVRQATGKGLEWVSAIGTAGDTYYTGSVKGRFTISRENAKNSLYLQMNSLRAGDTAVYYCVRGGVWDDAFDIWGQGTMVTVSS VL: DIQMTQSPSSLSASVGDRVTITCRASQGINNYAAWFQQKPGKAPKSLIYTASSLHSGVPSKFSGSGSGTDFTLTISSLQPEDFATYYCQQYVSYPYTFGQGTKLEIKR', 72.2);
